Each recorded value in this set is attributed to ChEMBL document CHEMBL1201862.

Test system: KM12
protocol: NCI tumour cell line growth inhibition, 48 h
Activity calls are given as the source filed them. No stated cut-off is given here; in the data, active = GI50 up to about 1.1 µM and inactive = higher.
Log the outcome using a class from active, inactive

Which result was noted for this compound in the test: `O=C(OCCOCBr)c1ccccc1`
inactive

Lab log entry: CCC(C)C1NC(=O)C(NC(=O)C(CC(C)C)N(C)C(=O)[C@@H]2C=CCN2C(=O)[C@H](C)O)C(C)OC(=O)[C@H](Cc2ccc(OC)cc2)N(C)C(=O)[C@@H]2CCCN2C(=O)[C@H](CC(C)C)NC(=O)C(C)C(=O)[C@H](C(C)C)OC(=O)CC1O (stereo partly drawn) — outcome as called in the assay?
active

# outcome recorded in this test, key = Nc1ccc(C(=O)CC2(O)C(=O)Nc3c(Cl)cc(Cl)cc32)cc1 (stereo not drawn)
inactive

###

Can you tell me GI50 for the items I'm about to list?
System: SK-MEL-28
protocol: NCI tumour cell line growth inhibition, 48 h
Activity calls are given as the source filed them. No stated cut-off is given here; in the data, active = GI50 up to about 1.1 µM and inactive = higher.

Form field: reported GI50 of `c1ccc(/N=C2\c3ccccc3CN2c2ccccn2)nc1`
> 100 µM (inactive)

Record request: GI50 value, item `C=CCON(C(=O)OC(C)(C)C)C(C)(C)C`
> 100 µM (inactive)

Consider the molecule Nc1ccc(C(=O)CC2(O)C(=O)Nc3c(Cl)cc(Cl)cc32)cc1 (configuration not stated) and give its measured GI50.
> 100 µM (inactive)

Query: GI50; subject: Cn1c2ccccc2c2c3c(c4c5ccccc5n(C5OC(CO)C(O)C(O)C5O)c4c21)C(=O)OC3=O (configuration not stated)
> 100 µM (inactive)

// query GI50 value for entry COc1ccc2nc(NC(=O)C(=O)C(C#N)c3ccc([N+](=O)[O-])cc3)sc2c1 (configuration not stated)
> 100 µM (inactive)

Entry `c1ccc2c(c1)SC1=C(SC(=C3SC4=C(S3)Sc3ccccc3S4)S1)S2` : reported GI50 = ?
> 100 µM (inactive)

Quick one: GI50 of `CCOc1cc2ccc3c4cc(OC)c(OC)cc4cnc3c2cc1OCC` ?
> 100 µM (inactive)

Which measured GI50 value corresponds to CCCCC1(N=[N+]=[N-])C(=O)C2C=CC=C3c4ccccc4N(C1=O)C32 (configuration not stated) ?
78.2 µM (inactive)

What value of GI50 has been recorded for this entry: COc1ccc(-c2c(C(=O)Nc3ccccc3)c(-c3ccccc3)n(C3OC(CO)C(O)C(O)C3O)c(=S)c2C#N)cc1 (configuration not stated)
> 100 µM (inactive)

Quick one: GI50 of `CC[C@H](NC(=O)OC(C)(C)C)C(=O)NCP(=O)(OCc1ccc([N+](=O)[O-])cc1)OCc1ccc([N+](=O)[O-])cc1` ?
28.4 µM (inactive)

Using the record for `COc1ccc(/C=C2\C=Cc3ccccc32)cc1OC` , report its GI50.
> 100 µM (inactive)

Using the record for `Clc1cc(C(c2cc(Cl)sc2Cl)c2cc(Cl)sc2Cl)c(Cl)s1` , report its GI50.
> 100 µM (inactive)

What value of GI50 has been recorded for this entry: `N=C(N)N/N=C/c1c(-c2ccc(Cl)cc2)nc2sc(Cl)cn12`
1.81 µM (inactive)

For `Cc1cc2oc3c(ccc(=O)n3C)c(=O)c2c(C)c1Cl` , what is its reported GI50?
26.5 µM (inactive)

Entry under review: `CCCCCCCCCCCC1=NCCN1` . Reported GI50?
> 100 µM (inactive)

# get_value(readout='GI50', item= `O=c1[nH]nc(Cn2c3ccc(Br)cc3c3nc4ccccc4nc32)n1C1CCCCC1` )
19.3 µM (inactive)

Any idea what GI50 was measured for `N#C/C(=C\c1ccccc1)c1nc(-c2cc3ccccc3oc2=O)cs1` ?
> 100 µM (inactive)

###

Tested on: OVCAR-8
protocol: NCI tumour cell line growth inhibition, 48 h
Activity calls are given as the source filed them. Cut-off read from the data, not from the text of the source: active = GI50 up to about 1.1 µM and inactive = higher. *1 amine or outer side, *2 acyl side, *3 side chain or, on linkers, in order; H or OH if unused. Where a SMILES comes first, the peptide text is derived from it. Bridges are numbered along the chain shown (N, C = ends). Roman numbers before positions name the chains, in order. [ ]: non-standard residue; d: D form. Actinocin(9to1) = Cc1c2oc3c(C)ccc(C(=O)[*:1])c3nc-2c(C(=O)[*:2])c(N)c1=O; NMeV = CN[CH](C(=O)O)C(C)C; Sar = CNCC(=O)O
Hi there, use one of these labels in your reply, thanks! Y = active, N = inactive

Recorded test outcome, item `N=C(NNS(=O)(=O)c1ccccc1)Oc1ccc(Cl)cc1`
N

Test call, this molecule: `COc1cccc([C@H]2C/C(=N\NC(=O)C(=O)N[C@@H](C)c3ccccc3)c3ccccc3N2)c1`
N

Assay outcome for `C/C(=N\NC(N)=O)c1sc(-c2nc(C)c(/C(C)=N/NC(N)=O)s2)nc1C` : what was it?
N

Hi, do you know how CC(=O)OCC1OC(OCCCOP(=S)(OCCC#N)OCC2OC(n3ccc(N)nc3=O)C(OC(=O)c3ccccc3)C2OC(=O)c2ccccc2)C(OC(C)=O)C(OC(C)=O)C1OC(C)=O (centres undefined) came out in this test?
N

Each molecule tested received a call. Report the one for `Cc1ccc(S(=O)(=O)N2CCCSCC2)cc1` .
N

Recorded test call requested for `COc1ccccc1/C=C(\C#N)C(=O)c1ccccc1`
N

How did this test come out for Cc1c2oc3c(C)ccc(C(=O)NC4C(=O)NC(Cc5ccccc5)C(=O)N5CCCC5C(=O)N(C)CC(=O)N(C)C(C(C)C)C(=O)OC4C)c3nc-2c(C(=O)NC2C(=O)NC(Cc3ccccc3)C(=O)N3CCCC3C(=O)N(C)CC(=O)N(C)C(C(C)C)C(=O)OC2C)c(N)c1=O (centres undefined) (I: TFP[Sar][NMeV] / II: TFP[Sar][NMeV]; ester I:1-I:C, II:1-II:C; linker I:N-II:N via Actinocin(9to1); configuration not given here) ?
Y

Check the results log: what was the call for O=C1C(=O)N(C2C3CC4CC(C3)CC2C4)C(=O)C(=O)C1c1nc2ccccc2o1 (centres undefined) ?
N

Look up the recorded call for `CCOC(=O)c1c(O)nc(O)c(CC)c1C` in this test.
N

What is the recorded call for this molecule in the test? `CCOC(=O)/C=C(\C(=O)OCC)n1cc(Cl)c(=O)n(CC(=O)OCC)c1=O`
N

Fill in: this test's call for O=C(NC(CO)Cc1ccc(Oc2cc(CC(CO)NC(=O)OCc3ccccc3)ccc2OC(=O)OCc2ccccc2)cc1)OCc1ccccc1 (centres undefined) is ___
N

Please indicate how the test categorized `O=C1NC(=S)N(c2cccc3ccccc23)C(=O)/C1=C/c1c[nH]c2ccccc12` .
N

Query: recorded result category for NCC1(N2CCOCC2)C2CCCC21CO (centres undefined) in this test
N

Name the outcome recorded for `c1ccc(NC2(c3nnnn3C3CCCCC3)CCNCC2)cc1` in the assay.
N

###

Consider the following molecules; for each one, report its GI50.
Test system: K562
protocol: NCI tumour cell line growth inhibition, 48 h
Active and inactive are the calls of the source. Rule as the data show it: active = GI50 up to about 1.1 µM and inactive = higher.

Dear colleague, I am looking for the recorded GI50 of the following molecule: `COc1ccc(-n2cnc3c2=NC(C)(C)NC=3C(N)=O)c(OC)c1`
> 100 µM (inactive)

Please report the recorded GI50 for `O=S(=O)(c1ccccc1)n1cc(C[P+](c2ccccc2)(c2ccccc2)c2ccccc2)c2ccccc21` .
2.65 µM (inactive)

Entry under review: `C/C(=N/NC(=S)Nc1ccc(Cl)cc1)c1cccc(/C(C)=N\NC(=S)Nc2ccc(Cl)cc2)n1` . Reported GI50?
5.02 µM (inactive)

What value of measured GI50 is listed for Brc1cccc(Nc2ncnc3sc4c(c23)CCC(Nc2cccc(Br)c2)C4)c1 (configuration not stated) ?
> 100 µM (inactive)

I'd like to know its GI50. The molecule in question is `CC(C)c1cccc(C(C)C)c1OS(=O)(=O)NC(=O)OC(C(F)(F)F)C(F)(F)F`
24.5 µM (inactive)

State the recorded GI50 for this entry: C[N+]1(CCC(=O)c2ccccc2)CCC2CCC(C2)C1 (configuration not stated)
> 100 µM (inactive)

Give the measured GI50 of `NCCOc1ccccn1` .
> 100 µM (inactive)

Entry `CNC1=C(C)C(=O)C(C)=C(C(C)(C)CC(=O)n2cc(F)c(=O)[nH]c2=O)C1=O` : reported GI50 = ?
32 µM (inactive)

Can you share its GI50? I mean this molecule: `CCN1C[C@]2(COC)[C@H](O)C[C@H](OC)[C@]34C1[C@H]([C@H](OC)[C@H]23)[C@]1(OC(C)=O)[C@H]2[C@@H](OC(=O)c3ccccc3)[C@](O)(C[C@H]24)[C@@H](OC)[C@@H]1O`
> 100 µM (inactive)

Item under review: `COc1cc2c(cc1OCc1ccccc1)NC(=S)[C@@H]1CCCN1C2=S` . Reported GI50?
45.2 µM (inactive)

Query (molecule): COc1cc(/C=C2\CCC/C(=C\c3ccc(O)c(OC)c3)C2=O)ccc1O [CYCLOVALONE] ; field requested: GI50
3.22 µM (inactive)

Query (molecule): Nc1ccc(C(=O)NN2C(=O)C(Cl)C2c2cc(Br)ccc2O)cc1 (configuration not stated) ; field requested: GI50
70.1 µM (inactive)

Return reported GI50; argument: `Cc1ccc(/C=N/C23CC4CC(CC(C4)C2)C3)cc1`
> 100 µM (inactive)

What value of GI50 has been reported for the following molecule? COc1cc2c(cc1O)CCN[C@@]21CS[C@H]2c3c(OC(C)=O)c(C)c4c(c3C(COC1=O)N1C2C2NC(Cc3cc(C)c(OC)c(O)c32)[C@@H]1C#N)OCO4 (some centres not stated)
< 0.01 µM (active)

If you can, please state the reported GI50 value of `Cc1c(C(=O)/C=C/c2ccc([N+](=O)[O-])cc2)[n+]([O-])c2ccccc2[n+]1[O-]` .
27 µM (inactive)

I would be grateful if you could share the reported GI50 for `O=C(/N=N/c1ccccc1Br)NNc1ccccc1Br` .
27.3 µM (inactive)

Dear colleague, I am looking for the recorded GI50 of the following molecule: `C/C(=C\c1ccc2c(c1)OCO2)[N+](=O)[O-]`
1.64 µM (inactive)

For the molecule CCN1C(=O)c2cc(OC)c(OC)cc2C(=O)C12OC(=O)c1cc3c(cc12)OCO3 (configuration not stated) , what GI50 is on record?
> 100 µM (inactive)

Look up GI50 for this molecule: `CCOC(=O)NN(C(=O)OCC)C(=C(C1=CCCCC1)N1CCOCC1)N(NC(=O)OCC)C(=O)OCC`
> 100 µM (inactive)

May I ask what GI50 has been recorded for NC1C2C(CC(=O)O)OCC=C3CN4CCC1(C(=O)C(=O)O)C4CC32 (configuration not stated) ?
> 100 µM (inactive)

Dear colleague, I am looking for the recorded GI50 of the following molecule: `CO/[N+]([O-])=C\C(=O)N/C=C/C(=O)O`
> 100 µM (inactive)

Quick one: GI50 for CC(=O)OCC1OC(OCCCOP(=S)(OCCC#N)OCC2OC(n3ccc(N)nc3=O)C(OC(=O)c3ccccc3)C2OC(=O)c2ccccc2)C(OC(C)=O)C(OC(C)=O)C1OC(C)=O (configuration not stated) ?
> 100 µM (inactive)

Name the reported GI50 value associated with the molecule `CCOC(=O)/C(=C/c1cn(C(C)=O)c2ccccc12)P(=O)(OC)OC`
25.6 µM (inactive)

May I ask what GI50 has been recorded for `CCOC(=O)c1nc2c(nc1C(=O)OCC)C(=O)c1ccccc1C2=O` ?
0.348 µM (active)

Requested field: GI50. Item: `COc1cc(/C=C/c2ccc(O)c(OC)c2)cc(OC)c1`
26.4 µM (inactive)

// lookup GI50 for `COc1ccccc1/C=C(\C#N)C(=O)c1ccccc1`
> 100 µM (inactive)

Consider the molecule shown here: `CC(C)(C)OC(=O)NCC(=O)OCc1ccccc1` What is its recorded GI50?
> 100 µM (inactive)

Which GI50 is reported for this molecule? `O=C(NNC(=O)c1nsc2ccccc12)c1ccc(Cl)cc1`
19.1 µM (inactive)

Which GI50 value belongs to Cn1cc2ccccc2c1-c1nc(F)nc(Oc2ccc3c(c2)CC[C@@H]2C3CC[C@]3(C)C(O)CCC23)n1 (some centres not stated) ?
29.2 µM (inactive)

Given the entry CC(=O)O[C@]1(C)CCC2C(C)C(=O)OC2C2C(C)[C@@H](O)CC21 (some centres not stated) , report its measured GI50.
17.1 µM (inactive)

For the molecule shown here, Cn1c2ccccc2c2c3c(c4c5ccccc5n(C5OC(CO)C(O)C(O)C5O)c4c21)C(=O)OC3=O (configuration not stated) , give the reported GI50.
> 100 µM (inactive)

Sample `CCOC(=O)c1[nH]cc(C)c1-c1ccc2c(-c3ccccc3)nc3ccccc3n12` — what was its GI50?
3.34 µM (inactive)
